assay: Inhibition of TEL/KDR (unknown origin) transfected in mouse Ba/F3 cells assessed as reduction in cell viability incubated for 48 hrs by brightglo-luciferase reporter gene assay
Measure Name: IC50 (µM)
Give bare numbers, in µM.

For orientation, consider the following solved cases.
# Molecule Smiles, Recorded Value
rows = [
    ("COc1ccc(-c2cnn3c(N)c(-c4ccccc4)c(NC4CC(C)(C)N(C)C(C)(C)C4)nc23)cc1OC", 0.99),
    ("COC(=O)N1CCN(C(=O)c2ccc(-c3cnn4c(N)c(-c5ccccc5)c(NC5CC(C)(C)N(C)C(C)(C)C5)nc34)cc2)CC1", 0.89),
    ("COc1ccc(-c2cnn3c(N)c(-c4ccccc4)c(OCCCN(C)C)nc23)cc1OC", 3),
    ("COc1ccc(-c2cnn3c(N)c(-c4ccccc4)c(OC4CCN(C)CC4)nc23)cc1OC", 1.4),
    ("COc1ccc(-c2cnn3c(N)c(-c4ccccc4)c(NC4CCN(C)CC4)nc23)cc1OC", 3.1),
]

Quick request: IC50 for each listed item, please.
1. CN1C(C)(C)CC(Nc2nc3c(-c4ccc(C(=O)N5CCN(S(C)(=O)=O)CC5)cc4)cnn3c(N)c2-c2ccccc2)CC1(C)C
2. COc1ccc(-c2cnn3c(N)c(-c4ccccc4)c(OC4CCNCC4)nc23)cc1OC

[out]
1.1
3.6

[in] Provide IC50 value for the following compound: CN1C(C)(C)CC(Nc2nc3c(-c4ccc(C(=O)N5C[C@@H]6C[C@H]5CO6)cc4)cnn3c(N)c2-c2ccccc2)CC1(C)C
[out] 1.3

----------
Exercise: state measured pIC50 for each of the molecules provided.
experiment: Inhibition of BLK (unknown origin) transfected in mouse Ba/F3 cells assessed as reduction in cell viability incubated for 48 hrs by brightglo-luciferase reporter gene assay
Give bare numbers, as −log10 of the molar value.

For orientation, consider the following solved cases.
# Molecule Smiles, Recorded Value
rows = [
    ("COc1ccc(-c2cnn3c(N)c(-c4ccccc4)c(OC4CCN(C)CC4)nc23)cc1OC", 6.28),
    ("COC(=O)Nc1ccc(-c2c(OC3CCN(C)CC3)nc3c(-c4ccc(OC)c(OC)c4)cnn3c2N)cc1", 6.64),
]

[in] Provide pIC50 value for the following molecule: COc1ccc(-c2cnn3c(N)c(-c4nccs4)c(OC4CCN(C)CC4)nc23)cc1OC
[out] 5.09

----------
Exercise: state measured IC50 for each of the molecules provided.
test: Inhibition of FGFR1 (unknown origin) transfected in mouse Ba/F3 cells assessed as reduction in cell viability incubated for 48 hrs by brightglo-luciferase reporter gene assay

# Molecule Smiles, IC50
rows = [
    ("COC(=O)Nc1ccc(-c2c(OC3CCN(C)CC3)nc3c(-c4ccc(OC)c(OC)c4)cnn3c2N)cc1", "0.01 µM"),
]

Quick request: IC50 for each listed item, please.
1. COc1ccc(-c2cnn3c(N)c(-c4nccs4)c(OC4CCN(C)CC4)nc23)cc1OC
2. COc1ccc(-c2cnn3c(N)c(-c4ccccc4)c(OC4CCN(C)CC4)nc23)cc1OC

[out]
1: 3.1 µM; 2: > 5.6 µM

----------
test: Inhibition of FGFR4 (unknown origin) transfected in mouse Ba/F3 cells assessed as reduction in cell viability incubated for 48 hrs by brightglo-luciferase reporter gene assay
Measure Name: pIC50
One number for each entry, as −log10 of the molar value.

Quick request: pIC50 for each listed item, please.
1. COc1ccc(-c2cnn3c(N)c(-c4nccs4)c(OC4CCN(C)CC4)nc23)cc1OC
2. COC(=O)Nc1ccc(-c2c(OC3CCN(C)CC3)nc3c(-c4ccc(OC)c(OC)c4)cnn3c2N)cc1

[out]
5.36
7.46
